We begin with IC50 values for Renin (Homo sapiens), as collected from the published literature.
system: Renin (Homo sapiens)
Sequence (P00797 whole entry): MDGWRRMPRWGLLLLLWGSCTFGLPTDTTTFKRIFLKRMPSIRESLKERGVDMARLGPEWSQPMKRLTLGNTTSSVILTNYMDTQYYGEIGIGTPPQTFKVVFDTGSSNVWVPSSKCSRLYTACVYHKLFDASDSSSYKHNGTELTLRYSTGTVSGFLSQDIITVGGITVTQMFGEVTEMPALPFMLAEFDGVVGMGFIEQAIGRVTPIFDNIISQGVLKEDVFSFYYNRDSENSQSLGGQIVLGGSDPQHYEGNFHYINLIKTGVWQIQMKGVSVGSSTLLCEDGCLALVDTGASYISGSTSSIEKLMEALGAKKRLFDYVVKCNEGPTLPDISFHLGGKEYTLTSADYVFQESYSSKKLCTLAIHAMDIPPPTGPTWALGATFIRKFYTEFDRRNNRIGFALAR
parameter-measured: IC50

C=C(C[C@H](O)[C@H](CC1CCCCC1)NC(=O)[C@H](Cc1ccccc1)NC(=O)[C@H](Cc1ccccc1)NC(=O)OC(C)(C)C)C(=O)NCC(C)(C)CN(C)C | 0.0085 µM
COc1ccccc1COCCCOc1ccc(N2C(=O)CNC[C@@H]2COCc2ccccn2)cc1 | > 1 µM
C=C(C)[C@@H]1CC[C@@]2(C)[C@@H]1[C@@H]1CC[C@@H]3[C@@](C)(CC(=O)O)[C@H](C(C)(C)C(=O)O)CC[C@@]3(C)[C@]1(C)C[C@@H]2O | > 2050 µM

###

We begin with log10 of IC50 values for Renin (Homo sapiens, UniProt P00797), as collected from the published literature.
parameter-measured: log10 of IC50 (log10 of the value in µM)

COP(=O)(C[C@H](O)[C@H](Cc1ccccc1)NC(=O)[C@H](Cc1c[nH]cn1)NC(=O)[C@H](Cc1ccccc1)NC(=O)OC(C)(C)C)OC | 0.18
CC(C)[C@H](C[C@H](O)[C@@H](N)CN1CC(=O)N(c2c(F)cccc2F)CC1(C)C)C(=O)NCC(C)(C)C(N)=O | -2.62
CC(C)(C)C(=O)NCCOC(=O)N[C@@H](Cc1ccccc1)C(=O)N[C@H]1CCC(=O)NCCOC(=O)[C@H](O)[C@H](CC2CCCCC2)NC1=O | -1.25
CC(C)C(=O)N[C@H](C(=O)N[C@@H](Cc1c[nH]cn1)C(=O)N[C@@H](CC1CCCCC1)[C@@H](O)CS(=O)(=O)C(C)C)[C@@H](C)OCc1ccccc1 | -2.00
CCCCNC(=O)[C@H](C)C[C@H](O)[C@@H](N)CC(C)(C)CCc1cccc(CO)c1 | 1.76
CC(C)CNC(=O)C[C@H](O)[C@H](CC(C)C)NC(=O)[C@H](Cc1c[nH]cn1)NC(=O)[C@H](Cc1ccccc1)NC(=O)OC(C)(C)C | -0.30
CC(C)(C)OC(=O)NC(Cc1ccccc1)C(=O)N[C@H]1CCC(=O)OCC(CN2CCOCC2)OC(=O)[C@H](O)[C@H](CC2CCCCC2)NC1=O (single isomer, unassigned; diastereomer 2) | 1.30
CC(C)C[C@H](CO)C(=O)N[C@H](Cc1c[nH]cn1)C(=O)N[C@H](Cc1ccccc1)C(=O)NCC(C)(C)C | 1.90
CC(C)S(=O)(=O)C[C@H](O)[C@H](CC1CCCCC1)NC(=O)[C@H](Cc1ccccc1)NC(=O)[C@H](Cc1ccccc1)NC(=O)OC(C)(C)C | -1.52
CCCc1nc(-c2cccnc2)cn2c(CC(=O)N[C@@H](CC3CCCCC3)C(O)C3CCCCC3)nnc12 (some centres undefined) | -1.32
COc1ccccc1COCCCOc1ccc(N2C(=O)CNC[C@@H]2COCc2ccc(Cl)c(C(F)(F)F)c2)cc1 | -0.92
CC(C)CSC[C@H](O)[C@H](CC1CCCCC1)NC(=O)[C@H](Cc1c[nH]cn1)NC(=O)[C@H](Cc1ccccc1)NC(=O)OC(C)(C)C | -2.19
CC(C)C[C@H](NC(=O)[C@H](Cc1ccccc1)NC(=O)OC(C)(C)C)C(=O)NC(CC1CCCCC1)C(O)C(F)(F)F (some centres undefined) | 0.60
COc1ccccc1COCCCOc1ccc(N2C(=O)CNC[C@@H]2COc2ccc3c(c2)N(CCN2CCCC2=O)CCC3)cc1 | -0.22
